Where do the numbers come from? From PubChem BioAssay (NCI).

Entries and their TGI values follow.
Test system: HT29 colon
Assay text: NCI tumour cell line growth inhibition, 48 h
Test readout: TGI

>>> df
                                   compound  test_readout    reading
0  COc1ccc(-c2c(N)[n+]([O-])c3ccccc3[n+]2[O-])cc1OC           TGI   > 100 µM
1  COc1ccc2c(c1)/C(=C/c1cc(OC)c(OC)c(OC)c1)C(=O)N2C           TGI  > 88.1 µM
2  C=C1C(=O)O[C@H]2[C@H]1CC/C(COC(=O)c1ccccc1)=C\CC[C@@]1(C)O[C@@H]21           TGI     2.1 µM
3  COc1ccc(-c2cc(-c3cc(F)c(Cl)cc3Cl)on2)cc1OC           TGI   > 100 µM
4  NC1CCC(N[C@@H]2C[C@H]2c2ccccc2)CC1 (stereo not given in full)           TGI   > 100 µM
